Target: IgE on basophils of allergic donors (human) (UniProt P01854)
Sequence (P01854 1-428): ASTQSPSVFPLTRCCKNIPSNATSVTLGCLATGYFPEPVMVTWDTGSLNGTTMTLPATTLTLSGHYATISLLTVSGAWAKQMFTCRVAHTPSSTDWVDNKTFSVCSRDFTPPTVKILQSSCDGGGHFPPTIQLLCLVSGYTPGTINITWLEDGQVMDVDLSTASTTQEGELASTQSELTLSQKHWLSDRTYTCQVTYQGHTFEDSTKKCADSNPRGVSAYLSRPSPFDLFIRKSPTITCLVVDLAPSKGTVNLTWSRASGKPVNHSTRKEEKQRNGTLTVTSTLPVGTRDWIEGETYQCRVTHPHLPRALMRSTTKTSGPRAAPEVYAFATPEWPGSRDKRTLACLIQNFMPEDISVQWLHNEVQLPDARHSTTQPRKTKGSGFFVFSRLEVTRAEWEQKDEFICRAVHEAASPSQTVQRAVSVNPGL
Test: IgE surface stain on donor basophils, flow cytometry
Measured Endpoint: displacement effect on IgE surface expression
Could you kindly put the unit after your number?

sdAb A2 (VHH) VHH: EVQLLESGGGLVQPGGSLRLSCAASGFRFGNYDMAWVRQAPGKRYEWVSSIDTGGDITHYADSVKGRFTISRDNAKNTLYLQMNSLRPEDTAEYWCATDEEYALGPNEFDYYGQGTLVTVS
70%
A2+B3 (protein) VHH 1: EVQLLESGGGLVQPGGSLRLSCAASGFRFGNYDMAWVRQAPGKRYEWVSSIDTGGDITHYADSVKGRFTISRDNAKNTLYLQMNSLRPEDTAEYWCATDEEYALGPNEFDYYGQGTLVTVS VHH 2: DVQLQESGGGLVQAGGSLRLSCAASGFIFRLAGMSWVRQAPGKGFEWVSGITMDGSTTNYADSVKGRFTISRDNSKNRLYLQMNSLKPEDTAVYYCARGAKGGYNDPRGQGTQVTVS
70%
A2+B1 (protein) VHH 1: EVQLLESGGGLVQPGGSLRLSCAASGFRFGNYDMAWVRQAPGKRYEWVSSIDTGGDITHYADSVKGRFTISRDNAKNTLYLQMNSLRPEDTAEYWCATDEEYALGPNEFDYYGQGTLVTVS VHH 2: QVQLQESGGGLVQTGGSLRLSCAVHGRTFSNTGMGWFRQAPGNERQFVAIISPSGTSTYYADSVKGRFTISRDPAKNTVYLQMNSLKMDDTAVYYCAASYGSNWSTLRHQRRNEYDAWGQGTQVAVS
100%

*Q* Note down displacement effect on IgE surface expression recorded for A2+B2 (protein) VHH 1: EVQLLESGGGLVQPGGSLRLSCAASGFRFGNYDMAWVRQAPGKRYEWVSSIDTGGDITHYADSVKGRFTISRDNAKNTLYLQMNSLRPEDTAEYWCATDEEYALGPNEFDYYGQGTLVTVS VHH 2: QVQLVESGGGLVQAGGSLRLSCAVFGSTFSNNVADWYRQAPGKQRELVARISASGATREYGDSVKGRFTISRDDAKNTMYLQMNNLKPEDTAVYRCHKIEWEDLSRKDYWGQGTQVTVS
*A* 100%
